# Test system: P388 leukemia ip, CD2F1 mice, survival T/C
# assay_notes: NCI In Vivo Anticancer Drug Screen. Data for tumor model P388 Leukemia (intraperitoneal) in CD2F1 (CDF1) mice
# reported_conditions: endpoint: median survival time; dose: 120.0 mg/kg/injection; schedule: Q01DX005 (ip); vehicle: saline with Tween-80; higher = longer survival
Inconclusive results and toxic doses are left out.
value_type: T/C

Enquiry: Give its T/C value. Item: "CCOC(=O)c1cnc2ccc(C3CCCCC3)cc2c1Nc1ccc2c(c1)OCO2"
Return: 91 % of control

Enquiry: Give its T/C value. Item: "CN1CCOC(=O)C(C#N)=C1c1ccccc1"
Return: 108 % of control

Enquiry: Give its T/C value. Item: "CCN(CC)OC(=O)/C=C/c1ccccc1"
Return: 86 % of control

Enquiry: Give its T/C value. Item: "COC(=O)C1=C(C(=O)OC)NC2=C(C=N1)CCC2"
Return: 94 % of control

Enquiry: Give its T/C value. Item: COc1cc(C2c3cc4c(cc3OC(C)(O)C2C(C)=O)OCO4)cc(OC)c1O (stereo unspecified)
Return: 97 % of control

Enquiry: Give its T/C value. Item: COc1cc(C(C)c2cc3c(cc2OCC(C)=O)OCO3)cc(OC)c1OC (stereo unspecified)
Return: 97 % of control

Enquiry: Give its T/C value. Item: "Cc1c(NC(=O)Nc2cc([N+](=O)[O-])ccc2Cl)c(=O)n(-c2ccccc2)n1C"
Return: 86 % of control

Enquiry: Give its T/C value. Item: Cc1nc(Br)c(C(O)c2ccccc2)n1C (stereo unspecified)
Return: 92 % of control

Enquiry: Give its T/C value. Item: CC/S(=N\S(=O)(=O)c1ccc(C)cc1)c1cccc[n+]1[O-] (stereo unspecified)
Return: 110 % of control

Enquiry: Give its T/C value. Item: CCOC(=O)C1=NN(c2ccccc2)C(C(N)=O)C1 (stereo unspecified)
Return: 101 % of control

Enquiry: Give its T/C value. Item: COc1ccc(C2=NNC(=O)C3NC(=O)C(C#N)=C(C(=O)NN)C23c2ccc(OC)cc2)cc1 (stereo unspecified)
Return: 91 % of control
